Here we list compounds with their recorded IC50 when tested on Prostaglandin G/H synthase 1 (Ovis aries, UniProt P05979).
Sequence (P05979 whole entry): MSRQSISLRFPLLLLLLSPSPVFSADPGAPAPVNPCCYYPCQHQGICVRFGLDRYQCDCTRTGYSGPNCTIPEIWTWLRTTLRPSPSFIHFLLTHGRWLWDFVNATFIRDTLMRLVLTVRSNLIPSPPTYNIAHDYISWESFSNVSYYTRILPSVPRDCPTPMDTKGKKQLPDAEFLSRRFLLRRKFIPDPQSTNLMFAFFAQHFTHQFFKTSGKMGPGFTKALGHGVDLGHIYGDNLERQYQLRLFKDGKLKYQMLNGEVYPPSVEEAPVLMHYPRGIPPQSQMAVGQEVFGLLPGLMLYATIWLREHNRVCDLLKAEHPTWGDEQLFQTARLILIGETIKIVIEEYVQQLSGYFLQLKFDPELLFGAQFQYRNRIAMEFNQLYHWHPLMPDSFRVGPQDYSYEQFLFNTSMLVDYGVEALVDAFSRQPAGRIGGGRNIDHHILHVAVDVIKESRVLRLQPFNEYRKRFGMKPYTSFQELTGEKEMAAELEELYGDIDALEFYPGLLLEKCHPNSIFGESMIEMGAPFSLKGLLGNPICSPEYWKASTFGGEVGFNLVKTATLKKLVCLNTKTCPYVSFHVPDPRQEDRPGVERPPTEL

COMPOUND: O=C1CSC(c2ccc(Br)cc2)N1c1n[nH]c(=S)s1 (centres undefined)
IC50: 1.32 µM

Need IC50 for each of these compounds.
1. Cc1ccnc(NS(=O)(=O)c2ccc(NCNc3n[nH]c(=S)s3)cc2)n1
2. COc1ccc(C2C(C#N)=C(N)N=C3SC(=S)NN32)cc1 (centres undefined)
3. Cc1ccc(C2SCC(=O)N2c2n[nH]c(=S)s2)cc1 (centres undefined)

**Result**
1. > 50 µM
2. > 50 µM
3. > 50 µM
